# assayed system: T1, rNPR1-ANP complex (rat, UniProt P01160 124-151 (human entry), limits assumed)
# T1 construct: rNPR1 antigen in the presence of ANP; also called rNPR1 + 100 nM ANP
# T1 sequence: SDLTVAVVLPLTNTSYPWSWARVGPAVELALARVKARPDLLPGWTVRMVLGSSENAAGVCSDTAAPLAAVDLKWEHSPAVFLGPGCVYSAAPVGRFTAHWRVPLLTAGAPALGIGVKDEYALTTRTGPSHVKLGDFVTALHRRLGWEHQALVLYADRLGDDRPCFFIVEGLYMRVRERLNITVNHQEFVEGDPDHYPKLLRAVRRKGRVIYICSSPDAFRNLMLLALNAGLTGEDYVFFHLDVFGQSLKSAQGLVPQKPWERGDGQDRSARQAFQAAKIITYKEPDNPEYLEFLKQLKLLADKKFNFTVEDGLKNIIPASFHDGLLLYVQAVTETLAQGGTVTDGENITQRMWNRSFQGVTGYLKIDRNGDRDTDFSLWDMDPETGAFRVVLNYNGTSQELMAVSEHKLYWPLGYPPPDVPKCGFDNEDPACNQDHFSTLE
# T1 sequence (peptide): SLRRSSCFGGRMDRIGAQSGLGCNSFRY
# measurement description: ELISA, 1 µM IgG
# Set-up: unit not given here
measured endpoint: ELISA binding at 1 µM IgG
Lab note: record the figure alone, no unit after it.

Example entries and their recorded answers appear below.
### Prompt Dear colleague, I am looking for the recorded ELISA binding at 1 µM IgG of the following binder: YY05 (IgG format) (antibody, V domains shown, also called YY05_LALA) VH: EVQLVQSGAEVKKPGESLKISCKGSGYSFTSYWISWVRQMPGKGLEWMGIIYPGTSYTRYSPSFQGQVTISADKSISTAYLQWSSLKASDTAMYYCARGAVAGQLGFDHWGQGTLVTVSS VL: QSVLTQPPSVSGAPGQRVTISCTGSSSNIGAGYDVHWYQQLPGTAPKLLIYGNSNRPSGVPDRFSGSKSGTSASLAITGLQAEDEADYYCQSYYTSSHGPVFGGGTKLTVLG
### Response 16

### Prompt Dear colleague, I am looking for the recorded ELISA binding at 1 µM IgG of the following binder: YY04 (IgG format) (antibody, V domains shown, also called YY04_LALA) VH: EVQLVESGGGLVKPGGSLRLSCAASGFTFSNYWISWVRQAPGKGLEWVGRIKSKTYGGTTDYAEPVKGRFTISRDDSKNTLYLQMNSLKTEDTAVYYCAREKYSIRARGHGDYGFDVWGQGTLVTVSS VL: DIQMTQSPSSLSASVGDRVTITCRASQGISNYLAWYQQKPGKVPKLLIYAASTLQSGVPSRFSGSGSGTDFTLTISSLQPEDVATYYCQQGYHAPFTFGQGTKVEIKR
### Response 54

Alright, here's another binder for you.
### Prompt Dear colleague, I am looking for the recorded ELISA binding at 1 µM IgG of the following binder: YY07 (IgG format) (antibody, V domains shown, also called YY07_LALA) VH: EVQLVQSGAEVKKPGESLKISCKGSGYSFTSYWISWVRQMPGKGLEWMGIIYPGTSYTRYSPSFQGQVTISADKSISTAYLQWSSLKASDTAMYYCARGSLPGLLGFDHWGQGTLVTVSS VL: QSVLTQPPSVSGAPGQRVTISCTGSSSNIGAGYDVHWYQQLPGTAPKLLIYGNSNRPNGVPDRFSGSKSGTSASLAITGLQAEDEADYYCQSYDSPTSSSVFGGGTKLTVLG
### Response 3
